test system: AChE (honeybee gut lysate); construct: gene AChE-1; total AChE activity; assay: Ellman assay, […] nm, Hill fit; type: biochemical, Apis mellifera mellifera; settings: gut homogenate; […] min incubation; […] acetylthiocholine iodide, […] DTNB; PBS
value-kind: IC50 (nM)
Numbers only, in nM.

Entry COc1cc2c(cc1OC)C(=O)C(CC1CCN(Cc3ccccc3)CC1)C2 (stereo not shown) , IC50 reported as 115

Just for reference, paper PMC3564010 is where these values come from.
